For each of the compounds below, state its TGI.
Tested on: MDA-N
Experiment: NCI tumour cell line growth inhibition, 48 h

Study these solved cases before continuing.
[
  {
    "Compound": "O=C1c2c(Br)sc(Br)c2C(NC(=O)C(F)(F)F)C1O (configuration not stated)",
    "Experimental Value": "40.4 µM"
  },
  {
    "Compound": "O=C1NC(=O)c2ccc([N+](=O)[O-])c3cccc1c23",
    "Experimental Value": "26.8 µM"
  },
  {
    "Compound": "Cc1c(N=Nc2ccccc2)c(-c2ccccc2)n(C2OC(CO)C(O)C(O)C2O)c(=S)c1C#N (configuration not stated)",
    "Experimental Value": "20.1 µM"
  },
  {
    "Compound": "NC(CSS(=O)(=O)O)=NC1CC2CCC1C2 (configuration not stated)",
    "Experimental Value": "> 100 µM"
  },
  {
    "Compound": "CC(C)(C)c1cc(S(=O)(=O)O)c2oc(-c3ccccc3)cc(=O)c2c1",
    "Experimental Value": "> 100 µM"
  }
]

Consider the following items and state reported TGI for each.
1. CC1=NN(c2cccc(S(=O)(=O)O)c2)C2(C1)C(Cl)C(=O)N2c1nc2ccccc2s1 (configuration not stated)
2. c1ccc(C2=NNC3c4ccccc4-c4ccccc4N3C2)cc1 (configuration not stated)
3. CC(=O)NC1C(OCc2ccccc2)OC(CO)C(O)C1OC(C)C(=O)NC(C(=O)NC(CCC(=O)NCCCC(=O)Nc1ccc2c(c1)CN1C(=O)c3ccccc3C1=N2)C(N)=O)C(C)C (configuration not stated)
4. CC1=CC[C@H](C[C@H](C#CCCCC2OCCO2)O[Si](C(C)C)(C(C)C)C(C)C)C(=O)CC1
5. COc1ccccc1C[C@@H]1OC2(C=CC(=O)CC2SC(=O)c2ccccc2)O[C@H]1Cc1ccccc1OC (some centres not stated)
6. O=C1c2ccccc2-c2c1c1ccccc1c(=O)n2Cc1ccccc1
7. COC(=O)/C(C)=N/NC(=S)SC

output:
["27.7 µM", "> 100 µM", "> 100 µM", "> 100 µM", "6.16 µM", "> 100 µM", "> 100 µM"]

Consider the following items and state reported TGI for each.
1. CC1(C)C2CC(O)C1(C)CC2=O (configuration not stated)
2. C[N+](C)(C)CC1CCCC(C[N+](C)(C)C)C1=O (configuration not stated)
3. CCCCNC(=S)Nc1nc(C(=O)NNC(=S)NCC)cs1
4. C=C(C)C1CC=C(C)C(=O)C1 (configuration not stated)
5. Cc1cccc2nc(-c3ccccc3)cc(=O)n12
6. CCCN(CCc1ccc(-c2ccccc2)cc1)CCc1ccc2n[nH]nc2c1
7. O=C(/C=C/c1cccc([N+](=O)[O-])c1)N1CCN(CCOC(c2ccccc2)c2ccccc2)CC1

output:
["> 100 µM", "9.44 µM", "> 100 µM", "> 100 µM", "> 100 µM", "19.1 µM", "> 100 µM"]

This collection of values is drawn from PubChem BioAssay (NCI).
